Molecular target: CCKB receptor (Mus musculus, UniProt P56481)
Construct: The whole brains from male mice (CD1 22-25g; Charles River) were removed; from tissue; host or cells: cerebral cortex membranes of male CD1 mice
Sequence (P56481 whole entry): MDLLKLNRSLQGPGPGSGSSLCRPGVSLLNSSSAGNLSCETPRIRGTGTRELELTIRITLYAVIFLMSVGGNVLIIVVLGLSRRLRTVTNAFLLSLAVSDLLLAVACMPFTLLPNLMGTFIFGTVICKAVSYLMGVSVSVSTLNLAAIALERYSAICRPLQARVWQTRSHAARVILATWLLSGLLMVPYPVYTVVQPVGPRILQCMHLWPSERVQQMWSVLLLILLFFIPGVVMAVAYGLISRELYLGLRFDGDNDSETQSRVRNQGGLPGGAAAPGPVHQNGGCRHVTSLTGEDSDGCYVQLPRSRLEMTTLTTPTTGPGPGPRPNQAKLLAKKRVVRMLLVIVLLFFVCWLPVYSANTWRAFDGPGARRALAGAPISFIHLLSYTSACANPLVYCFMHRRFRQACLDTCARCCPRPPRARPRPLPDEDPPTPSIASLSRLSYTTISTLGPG
Experiment: radioligand binding assay at the CCKB receptor in mouse cortical membranes
Conditions: [125I]-CCK8S 200pM, 150 min at 21 ± 3°C, read-out: CCKB pKi (converted)
Criterion: Ki strictly less than 200 nM. Met: criterion met. Not met: criterion not met.

Compound	Category
O=C(NCC12CC3CC(CC(C3)C1)C2)C1C2c3ccccc3C(c3ccccc32)C1C(=O)N[C@@H](Cc1ccccc1)C(=O)Nc1ccccc1 (single isomer, unassigned)	criterion not met
O=C(O)c1cc(NC(=O)[C@@H](Cc2ccccc2)NC(=O)C2C3c4ccccc4C(c4ccccc43)C2C(=O)NCC23CC4CC(CC(C4)C2)C3)cc(C(=O)O)c1 (single isomer, unassigned) [Example 4]	criterion met
O=C(O)c1cc(NC(=O)[C@H](Cc2cccc(F)c2)NC(=O)C2C3c4ccccc4C(c4ccccc43)C2C(=O)NCC23CC4CC(CC(C4)C2)C3)cc(C(=O)O)c1 (single isomer, unassigned) [Example 18]	criterion met
O=C(O)c1cccc(NC(=O)[C@H](Cc2cccs2)NC(=O)C2C3c4ccccc4C(c4ccccc43)C2C(=O)NCc2cccc3ccccc23)c1 (single isomer, unassigned)	criterion not met
O=C(O)c1cc(NC(=O)[C@H](Cc2ccccc2)NC(=O)C2C3c4ccccc4C(c4ccccc43)C2C(=O)NCC2CCCCCC2)cc(C(=O)O)c1 (single isomer, unassigned) [Example 29]	criterion met
O=C(O)c1cc(NC(=O)[C@H](Cc2ccc(O)cc2)NC(=O)C2C3c4ccccc4C(c4ccccc43)C2C(=O)NCC23CC4CC(CC(C4)C2)C3)cc(C(=O)O)c1 (single isomer, unassigned)	criterion met
O=C(O)c1ccc(NC(=O)[C@H](Cc2ccccc2)NC(=O)C2C3c4ccccc4C(c4ccccc43)C2C(=O)NCC23CC4CC(CC(C4)C2)C3)cc1C(=O)O (stereo partly shown)	criterion met
O=C(O)c1cc(NC(=O)[C@H](Cc2ccc(F)cc2)NC(=O)C2C3c4ccccc4C(c4ccccc43)C2C(=O)NCC23CC4CC(CC(C4)C2)C3)cc(C(=O)O)c1 (single isomer, unassigned) [Example 8]	criterion met
O=C(O)c1cc(NC(=O)[C@H](Cc2ccccc2)NC(=O)C2C3c4ccccc4C(c4ccccc43)C2C(=O)NCC2CCCCC2)cc(C(=O)O)c1 (single isomer, unassigned) [Example 30]	criterion met
O=C(O)c1cccc(NC(=O)[C@H](Cc2ccccc2)NC(=O)C2C3c4ccccc4C(c4ccccc43)C2C(=O)NCc2cccc3ccccc23)c1 (single isomer, unassigned)	criterion not met
O=C(O)c1ccc(NC(=O)[C@H](Cc2ccccc2)NC(=O)C2C3c4ccccc4C(c4ccccc43)C2C(=O)NCC23CC4CC(CC(C4)C2)C3)cc1 (single isomer, unassigned) [Example 46]	criterion met
O=C(O)c1cc(NC(=O)[C@H](Cc2ccccc2)NC(=O)C2C3c4ccccc4C(c4ccccc43)C2C(=O)NCc2cccc3ccccc23)cc(C(=O)O)c1 (single isomer, unassigned) [Example 33]	criterion not met
O=C(O)c1cc(NC(=O)[C@H](Cc2ccccc2)NC(=O)C2C3c4ccccc4C(c4ccccc43)C2C(=O)NCCc2ccccc2)cc(C(=O)O)c1 (stereo partly shown)	criterion met
O=C(O)c1cc(NC(=O)[C@H](Cc2ccccc2)NC(=O)C2C3c4ccccc4C(c4ccccc43)C2C(=O)NCC23CC4CC(CC(C4)C2)C3)cc(C(=O)O)c1 (single isomer, unassigned) [Example 2]	criterion met
O=C(O)c1cc(NC(=O)[C@H](Cc2ccccc2)NC(=O)C2C3c4ccccc4C(c4ccccc43)C2C(=O)NCc2cccc3ccccc23)cc(C(=O)O)c1 (single isomer, unassigned) [Example 32]	criterion met
O=C(O)c1cc(NC(=O)[C@H](Cc2ccc(Cl)cc2)NC(=O)C2C3c4ccccc4C(c4ccccc43)C2C(=O)NCC23CC4CC(CC(C4)C2)C3)cc(C(=O)O)c1 (single isomer, unassigned) [Example 10]	criterion met
O=C(O)c1cc(CNC(=O)[C@H](Cc2ccccc2)NC(=O)C2C3c4ccccc4C(c4ccccc43)C2C(=O)NCC23CC4CC(CC(C4)C2)C3)cc(C(=O)O)c1 (single isomer, unassigned) [Example 62]	criterion met
COC(=O)c1cc(NC(=O)[C@H](Cc2ccccc2)NC(=O)C2C3c4ccccc4C(c4ccccc43)C2C(=O)NCC23CC4CC(CC(C4)C2)C3)cc(C(=O)OC)c1 (single isomer, unassigned)	criterion not met
O=C(O)c1cc(NC(=O)[C@@H](NC(=O)C2C3c4ccccc4C(c4ccccc43)C2C(=O)NCC23CC4CC(CC(C4)C2)C3)c2ccccc2)cc(C(=O)O)c1 (stereo partly shown)	criterion not met
